Target: T1, human MCH-2R (human, UniProt Q969V1 1-340)
T1 construct: Function: 293AEQ17/MCH-2R cells; also called hMCH-2R
T1 sequence (Q969V1 whole entry): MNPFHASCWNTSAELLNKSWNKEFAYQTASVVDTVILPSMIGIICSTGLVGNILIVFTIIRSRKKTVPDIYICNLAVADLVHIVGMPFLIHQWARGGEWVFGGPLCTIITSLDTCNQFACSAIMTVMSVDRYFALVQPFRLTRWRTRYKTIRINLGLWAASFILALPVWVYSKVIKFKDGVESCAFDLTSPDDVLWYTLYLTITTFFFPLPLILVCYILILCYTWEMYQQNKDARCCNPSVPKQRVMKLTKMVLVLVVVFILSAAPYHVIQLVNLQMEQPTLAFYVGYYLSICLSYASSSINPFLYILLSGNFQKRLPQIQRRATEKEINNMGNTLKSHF
Experiment: SPA, displacement of [125I]-[Phe13,Tyr19]-hMCH, MCH-2R membranes
pIC50: −log10 of the molar value. Positions of bridges follow the written chain, without caps; N, C: chain ends.
Readout: pIC50

Example results:
[
  {
    "Binder": "XCMLGRVYRPC (HELM PEPTIDE1{[ac].[dF].C.M.L.G.R.V.Y.R.P.C.[am]}$PEPTIDE1,PEPTIDE1,3:R3-12:R3$$$V2.0; SMILES CSCC[C@@H]1NC(=O)[C@@H](NC(=O)[C@@H](Cc2ccccc2)NC(C)=O)CSSC[C@@H](C(N)=O)NC(=O)[C@@H]2CCCN2C(=O)[C@H](CCCNC(=N)N)NC(=O)[C@H](Cc2ccc(O)cc2)NC(=O)[C@H](C(C)C)NC(=O)[C@H](CCCNC(=N)N)NC(=O)CNC(=O)[C@H](CC(C)C)NC1=O) [SEQ. ID. NO. 9 (Ac-D-Phe^6 analog of Ac-hMCH(6-16)-NH2)]",
    "Readout Value": 5.90
  },
  {
    "Binder": "XCMLGRVYRPC (HELM PEPTIDE1{[ac].[dK].C.M.L.G.R.V.Y.R.P.C.[am]}$PEPTIDE1,PEPTIDE1,3:R3-12:R3$$$V2.0; SMILES CSCC[C@@H]1NC(=O)[C@@H](NC(=O)[C@@H](CCCCN)NC(C)=O)CSSC[C@@H](C(N)=O)NC(=O)[C@@H]2CCCN2C(=O)[C@H](CCCNC(=N)N)NC(=O)[C@H](Cc2ccc(O)cc2)NC(=O)[C@H](C(C)C)NC(=O)[C@H](CCCNC(=N)N)NC(=O)CNC(=O)[C@H](CC(C)C)NC1=O) [SEQ. ID. NO. 13 (Ac-D-Lys^6 analog of Ac-hMCH(6-16)-NH2)]",
    "Readout Value": 5.99
  }
]

(A) Ac-RCMLGRVYRPC-NH2 (disulfide 2-11 (inferred), also called ID; NO; parent compound) [Ac-hMCH(6-16)-NH2]
(B) XCMLGRVYRPC (D-Arg at position 6, no acetyl; C-terminal amide; disulfide cycle) [SEQ. ID. NO. 4 (D-Arg^6 analog lacking an Ac group)]
Smaller pIC50 value? Options are A and B Mark your selection by writing its label.
B

This collection of values is drawn from patent US20050020492A1.
